System Tested: T1, human PRLR construct with an HA tag on HEK293/hPRLR cells (human, UniProt P16471 25-622)
T1 sequence: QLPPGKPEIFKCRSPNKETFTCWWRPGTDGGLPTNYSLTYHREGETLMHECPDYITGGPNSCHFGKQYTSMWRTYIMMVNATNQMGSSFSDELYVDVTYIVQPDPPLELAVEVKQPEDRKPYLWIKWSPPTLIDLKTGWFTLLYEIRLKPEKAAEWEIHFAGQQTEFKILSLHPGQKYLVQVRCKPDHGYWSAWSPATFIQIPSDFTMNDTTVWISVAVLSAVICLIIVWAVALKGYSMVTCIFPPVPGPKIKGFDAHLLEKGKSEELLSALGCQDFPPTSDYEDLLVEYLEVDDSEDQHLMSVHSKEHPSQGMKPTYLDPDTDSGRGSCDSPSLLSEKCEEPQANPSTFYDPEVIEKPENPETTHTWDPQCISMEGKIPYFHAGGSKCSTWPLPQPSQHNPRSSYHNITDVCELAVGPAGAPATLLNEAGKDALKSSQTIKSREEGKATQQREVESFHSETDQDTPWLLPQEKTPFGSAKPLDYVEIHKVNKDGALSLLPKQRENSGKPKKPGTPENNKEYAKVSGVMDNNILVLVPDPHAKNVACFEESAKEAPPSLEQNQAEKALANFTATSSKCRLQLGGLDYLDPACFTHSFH
Protocol Text: FACS on HEK293/hPRLR cells
Endpoint: FACS Cell Binding (Fold Above Background)

Binder	Result
H1H6793P (antibody, human IgG1, V domains shown, human IgG1 Fc (H1H)) VH: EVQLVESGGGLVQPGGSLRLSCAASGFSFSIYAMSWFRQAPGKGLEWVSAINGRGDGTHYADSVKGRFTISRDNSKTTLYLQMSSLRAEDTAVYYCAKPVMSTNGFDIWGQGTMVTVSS VL: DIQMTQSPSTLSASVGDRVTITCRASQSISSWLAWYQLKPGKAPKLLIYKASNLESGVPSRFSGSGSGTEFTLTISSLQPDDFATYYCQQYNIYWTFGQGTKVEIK	2 fold

Taken from patent US20180185504A1.
